# study target: WTapPOL (intact exonuclease domain) (Plasmodium falciparum)
# Sequence (Q8ILY1 1389-2016): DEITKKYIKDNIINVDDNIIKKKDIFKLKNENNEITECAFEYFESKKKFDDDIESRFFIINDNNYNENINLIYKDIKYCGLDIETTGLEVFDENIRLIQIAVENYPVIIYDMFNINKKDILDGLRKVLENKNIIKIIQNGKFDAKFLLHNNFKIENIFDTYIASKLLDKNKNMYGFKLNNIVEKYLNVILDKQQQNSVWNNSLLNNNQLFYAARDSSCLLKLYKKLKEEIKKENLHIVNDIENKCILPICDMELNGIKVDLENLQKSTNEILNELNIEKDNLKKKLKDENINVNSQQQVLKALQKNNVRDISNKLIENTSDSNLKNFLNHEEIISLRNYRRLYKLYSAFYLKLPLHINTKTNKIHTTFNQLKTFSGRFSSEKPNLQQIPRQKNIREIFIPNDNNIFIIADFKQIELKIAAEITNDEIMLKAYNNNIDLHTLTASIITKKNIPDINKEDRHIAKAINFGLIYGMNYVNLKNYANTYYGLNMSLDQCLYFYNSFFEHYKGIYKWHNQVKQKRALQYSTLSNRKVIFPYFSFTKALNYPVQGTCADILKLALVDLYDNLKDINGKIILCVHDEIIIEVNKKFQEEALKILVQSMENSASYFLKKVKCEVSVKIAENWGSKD
# test summary: […]'-5' exonuclease assay, 2-aminopurine release from blunt-ended dsDNA
outcome measure: IC50 (µM)

P = CC(C)(C)c1ccc(S(=O)(=O)Nc2c3c(nn2-c2cccc(C(F)(F)F)c2)CSC3)cc1 [6e]
Q = CC(C)(C)c1ccc(S(=O)(=O)Nc2c3c(nn2-c2ccc(C(F)(F)F)cc2)CSC3)cc1 [6f]
Task: Which has the smaller recorded IC50, P or Q ? State your choice using its label.
Output: Q
(Q: 16 µM, P: 41 µM)

A = CC(C)(C)c1ccc(S(=O)(=O)Nc2c3c(nn2-c2cccc(Cl)c2)CSC3)cc1 [6a]
B = CC(C)(C)c1ccc(S(=O)(=O)Nc2c3c(nn2-c2ccc(Cl)cc2)CSC3)cc1 [6b]
Task: Given the listed records, identify the one among A and B with higher IC50. State your choice using its label.
Output: A
